- assay target: Dihydroorotate dehydrogenase (quinone), mitochondrial (Plasmodium falciparum (isolate 3D7))
- measurement notes: PfDHODH enzyme inhibitors, primary screen, biochemical, C-terminal His tag, absorbance 600 nm (AID 1175);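 further: recombinant parasite enzyme with a five histidine tag at its C terminus; test concentration not given here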
- test context: DCIP absorbance 600 nm, higher = more signal, called active from +8 up or from −8 down
Attribute: composite z-score
// response body must contain only the number

Below, 8 molecules whose answers are already recorded.
CC(C)C[C@@H]1NC(=O)[C@H]2C[C@@H](C(=O)NCCCCCCNC(=O)CS)[C@@H](c3cccc(OCCO)c3)N2C1=O: -0.625
CC(c1ccccc1)C(O)C1C=CC2C(=O)NC(=O)C2N1Nc1ccccn1 (stereo unspecified): 0.865
COc1cc2c(cc1O)C(C)N(Cc1cccc(OC(F)(F)F)c1)CC2 (stereo unspecified): -1.44
C[C@]1(C(=O)NCc2ccccc2)c2ccccc2C(=O)N(Cc2cc(F)cc(C(F)(F)F)c2)[C@H]1c1ccc(CO)cc1: 0.225
CCOC(=O)C[C@H]1[C@H](OC(=O)c2ccc(-c3ccccc3)cc2)[C@@H](NC(=O)c2ccc(-c3ccccc3)cc2)c2cc(OCCCO)ccc2N1C(=O)Cc1ccc(OC)cc1: -0.432
COC(=O)c1ccc(OC)c(/C=C\CC(OC(C)=O)c2ccccc2)c1 (stereo unspecified): -3.79
O=C1C2C=CC(C(O)c3cccs3)N(Nc3ccccc3F)C2C(=O)N1c1ccccc1 (stereo unspecified): 0.609
CC(=O)Nc1cc(Br)ccc1C(=O)O: -0.398

composite z-score recorded for this molecule, CC(C)NC(=O)[C@@H]1c2ccccc2C(=O)N(Cc2ccccc2)[C@H]1c1ccc(CO)cc1 , is 0.0505

// sample O=C(O)[C@@]1(Cc2ccccc2)N=C(c2ccc(OCCCO)cc2)O[C@H]1c1ccccc1 , its composite z-score was 1.22

// COCCOC(=O)N1C(=O)[C@@]2(c3cc(C#CCNC(N)=O)ccc31)[C@H](c1ccccc1OCCO)N1[C@H](c3ccccc3)[C@H](c3ccccc3)OC(=O)[C@H]1[C@@H]2C(N)=O : composite z-score value = 1.39

CCN(CC)c1ccc(N2CC=CC34O[C@@H]5/C=C\CCCOC(=O)C5[C@H]3C(=O)N(C(CO)C(C)C)[C@@H]4C2=O)cc1 (stereo partly specified) yielded composite z-score of -0.952

Entry CC=CC(O)C1C=CC2C(=O)N(c3ccccc3)C(=O)C2N1Nc1ccc(C(C)C)cc1 (stereo unspecified) , composite z-score reported as 0.784

---

Examples of compounds with documented z-score follow.
- measurement notes: modulators of S6 phosphorylation in cells, primary screen, cell-based, A549, cytoblot, luminescence, serum-stimulated (AID 1158);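 further: serum-stimulated A549 lung adenocarcinoma cells; signal is phosphorylated S6 detected by cytoblot immunostaining with HRP secondary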
- test context: A549 phospho-S6 cytoblot, 5 h, higher = more signal
Returns: the value as a bare number; no unit string appended.

Here are 6 compounds together with their reported answers.
O=C1OCC=C[C@H]2OC34C=CCN(c5ccc(Cl)cc5)C(=O)[C@H]3N(CCCCCCO)C(=O)[C@@H]4[C@@H]12 (some centres not stated): -0.243
CN1CCC(CCCO)=CC1c1ccc(CN2CCCC2)cc1 (configuration not stated): -0.494
O=C1O[C@@H](c2ccccc2)[C@@H](c2ccccc2)N2[C@@H](c3ccc(OCCO)cc3)[C@]3(C(=O)Nc4ccc(C#CC5=CCCCC5)cc43)[C@@H](C(=O)O)[C@H]12: -0.106
CC1CC/C=C\[C@H]2OC34C=CCN(Cc5ccccc5)C(=O)[C@H]3N(CCCCCO)C(=O)[C@@H]4C2C(=O)O1 (some centres not stated): -0.689
COC(=O)[C@@]1(Cc2ccc(OC)cc2)[C@H]2c3cc(C(=O)N4CCCC4)n(Cc4cc(F)cc5c4OCOC5)c3C[C@H]2CN1C(=O)c1ccccc1: -0.0863
COC(=O)c1ccc(C23CC2(C(NP(=O)(c2ccccc2)c2ccccc2)c2ccccc2)C3)cc1 (configuration not stated): 1.36

Okay, next one:
// sample O=C1C[C@]2(c3ccc([N+](=O)[O-])cc3)C(=O)N(CC(F)(F)F)c3cc(CO)ccc3[C@H]2N1CC12CC3CC(CC(C3)C1)C2 , its z-score was 0.229
